B1: TPR t1 (parent)
chain: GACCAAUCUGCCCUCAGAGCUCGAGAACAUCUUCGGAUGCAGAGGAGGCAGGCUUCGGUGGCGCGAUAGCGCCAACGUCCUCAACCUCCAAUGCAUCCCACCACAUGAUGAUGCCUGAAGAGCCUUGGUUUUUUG

# Variants of: B1
# experimentalDetails: polymerase ribozyme fitness, log enrichment relative to wild type (log ratio); higher = more active; in vitro selection for triplet polymerase activity
Assign Fulfilled to entries whose polymerase ribozyme fitness (log ratio) meets or exceeds -4; assign Not fulfilled to the rest.

Dear colleague, could you confirm whether GACCAAUCUGCCCUCAGAGCUCGAGAACAUCUUCGGAUGCAGAGGAGGCAGGCUUCGGUGGCGCGAUAGCCCCAACGUCCUCAACCUCCAAUGCAUCCCACCUCAUGAUGAUGCAUAAAGAGCCUUGGUUUUUUG has polymerase ribozyme fitness (log ratio) at or above -4? Not fulfilled
